Attribution: patent US10821115B2

- SYSTEM_NAME: recombinant human Mcl-1 (residues 171-327) / Bim interaction (Homo sapiens (Human), UniProt Q07820)
- Sequence (Q07820 171-327): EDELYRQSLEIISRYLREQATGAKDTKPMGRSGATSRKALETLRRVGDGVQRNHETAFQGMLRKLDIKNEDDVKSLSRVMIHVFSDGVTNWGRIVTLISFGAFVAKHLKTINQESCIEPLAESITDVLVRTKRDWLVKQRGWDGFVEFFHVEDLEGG
- METHOD_NOTES: biochemical
- Type: binding
- SETTINGS: TR-FRET, Mcl-1(171-327) / biotin-Bim (51-76); read-out: Mcl-1 HTRF IC50
pIC50: −log10 of the molar value.
Quick rule: pIC50 of at least 9 means true (1), below that means false (0).

compound=N#C[C@]1(O)CCCCCS(=O)(=O)NC(=O)c2ccc3c(c2)N(C[C@@H]2CC[C@H]21)C[C@@]1(CCCc2cc(Cl)ccc21)CO3 cat="false (0)"
compound=CO[C@@]1(CCN(C)C2CCCC2)/C=C/C[C@H](C)[C@@H](C)S(=O)(=O)NC(=O)c2ccc3c(c2)N(C[C@@H]2CC[C@H]21)C[C@@]1(CCCc2cc(Cl)ccc21)CO3 cat="true (1)"
compound="C[C@@H]1[C@@H](C)CCC[C@@](O)(CS(=O)(=O)N(C)C(C)(C)C)[C@@H]2CC[C@H]2CN2C[C@@]3(CCCc4cc(Cl)ccc43)COc3ccc(cc32)C(=O)NS1(=O)=O [Example 100169]" cat="false (0)"

Now look at this one.
Prompt: State whether the measured pIC50 reaches 9, counting equality as reaching it, for C[C@@H]1[C@@H](C)C/C=C/[C@](O)(c2cccnc2F)[C@@H]2CC[C@H]2CN2C[C@@]3(CCCc4cc(Cl)ccc43)COc3ccc(cc32)C(=O)NS1(=O)=O (single isomer, unassigned) [Example 100313]
Response: true (1)

* * *

- SYSTEM_NAME: recombinant human Mcl-1 (residues 171-327) / Bim interaction (Homo sapiens (Human), UniProt Q07820)
- METHOD_NOTES: biochemical
- Assay type: binding
- SETTINGS: TR-FRET, Mcl-1(171-327) / biotin-Bim (51-76); read-out: Mcl-1 HTRF IC50
pIC50: −log10 of the molar value.
Quick rule: pIC50 of at least 9 means yes, below that means no.

The following compounds have reported results that may help.
compound="C[C@@H]1[C@@H](C)CCC[C@](O)([C@@H](C)C(=O)N(C)C)[C@@H]2CC[C@H]2CN2C[C@@]3(CCCc4cc(Cl)ccc43)COc3ccc(cc32)C(=O)NS1(=O)=O (single isomer, unassigned) [Example 100117]" cat=no
compound=CO[C@]1(c2ncccn2)CCC[C@H](C)[C@@H](C)S(=O)(=O)NC(=O)c2ccc3c(c2)N(C[C@@H]2CC[C@H]21)C[C@@]1(CCCc2cc(Cl)ccc21)CO3 cat=yes

Now look at this one.
Prompt: State whether the measured pIC50 reaches 9, counting equality as reaching it, for C[C@@H]1[C@@H](C)C/C=C/[C@@](O)(c2cnccc2F)[C@@H]2CC[C@H]2CN2C[C@@]3(CCCc4cc(Cl)ccc43)COc3ccc(cc32)C(=O)NS1(=O)=O (single isomer, unassigned)
Response: yes

* * *

- SYSTEM_NAME: recombinant human Mcl-1 (residues 171-327) / Bim interaction (Homo sapiens (Human))
- METHOD_NOTES: biochemical
- Format: binding
- SETTINGS: 0.1 nM Mcl-1(171-327), 0.05 nM biotin-Bim (51-76); read-out: Mcl-1 HTRF IC50
READOUT_TYPE: pIC50
Expect pIC50 as a plain number equal to -log10 of the molar concentration.

See these solved cases before continuing.
compound="COCCN(C)C1CN(C[C@@]2(OC)/C=C/C[C@H](C)[C@@H](C)S(=O)(=O)NC(=O)c3ccc4c(c3)N(C[C@@H]3CC[C@H]32)C[C@@]2(CCCc3cc(Cl)ccc32)CO4)C1 [Example 94]" system_name="recombinant human Mcl-1 (residues 171-327) / Bim interaction (Homo sapiens (Human))" readout_type=pIC50 number=9.72
compound="CO[C@@]1(CN2CCN(C3CN(C(C)=O)C3)CC2)/C=C/C[C@H](C)[C@@H](C)S(=O)(=O)NC(=O)c2ccc3c(c2)N(C[C@@H]2CC[C@H]21)C[C@@]1(CCCc2cc(Cl)ccc21)CO3 [Example 280]" system_name="recombinant human Mcl-1 (residues 171-327) / Bim interaction (Homo sapiens (Human))" readout_type=pIC50 number=10.28

Prompt: What does the record list as pIC50 for CO[C@]1(CN2CCN(C(C)C)C(=O)C2)/C=C/C[C@H](C)[C@@H](C)S(=O)(=O)NC(=O)c2ccc3c(c2)N(C[C@@H]2CC[C@H]21)C[C@@]1(CCCc2cc(Cl)ccc21)CO3 [Example 323] ?
Response: 9.78
